The origin of these recorded values is paper PMC9911399.

# system-under-test: T1, RBFOX1 RRM (Homo sapiens, UniProt Q9NWB1 109-208)
# T1 sequence: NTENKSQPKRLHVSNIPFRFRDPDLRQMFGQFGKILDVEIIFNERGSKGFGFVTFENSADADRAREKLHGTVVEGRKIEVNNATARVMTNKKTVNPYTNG
# assay-method-text: EMSA; HiTS-Eq, 1 nM pool, 10 min; buffer printed only for the single-RNA assays: 10 mM Tris pH 7.5, 150 mM NaCl, 3.4 mM EDTA, 0.001% NP-40, 30 C
# condition-context: tags: His6 N-terminal (pET28a); label: 5' 32P
The full ranking holds about 16,000 sequences; the median of “ka relative to ugcaugu” is about 0.0091, and the highest 2% start at about 0.032. Many of the other results were omitted from the sample, so the highest values are more common in it than they were.

binder | binding signal
UGCCUGU (DNA:RNA) RNA: GGGAGACCGGAAUUCAGAUUGUCCUGCCUGUUUAAAUCCCGUCGUAGCCACCA DNA 1: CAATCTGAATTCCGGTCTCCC DNA 2: TGGTGGCTACGACGGGATT | 0.0501 KA relative to UGCAUGU
CACCUGC (DNA:RNA) RNA: GGGAGACCGGAAUUCAGAUUGUCCCACCUGCUUAAAUCCCGUCGUAGCCACCA DNA 1: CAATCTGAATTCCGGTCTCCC DNA 2: TGGTGGCTACGACGGGATT | 0.00791 KA relative to UGCAUGU
